test system: HCT-15 colon; assay: NCI-60 one-dose screen, 48 h; conditions: 10 µM unless noted
This is part of a sample that, as a whole, favours compounds with a hit. Of some 83,000 tested, about 20% had one in any assay. Activity calls are given as the source filed them. Rule for the calls: active = growth percent below 10; inactive = the rest.
Parameter call: string, one of 1 for active, 0 for inactive

Some solved cases for reference:
COC(=O)[C@]1(C)CCC[C@]2(C)[C@H]3C[C@H]4C(C(C)C)=C[C@]3(CC[C@H]21)[C@@H]1C(=O)CC[C@H](OCCC#N)[C@@H]14    0
C=C(C)[C@@H]1CCC[C@]2(COS(=O)(=O)c3ccc(C)cc3)CC[C@]3(C)[C@@H](CC[C@@H]4[C@@]5(C)CCCNC(C)(C)[C@@H]5CC[C@]43C)[C@@H]12    1
Cc1ccccc1/C=C/C(=O)c1cccc(OCCCCOc2cccc(C(=O)/C=C/c3ccccc3C)c2)c1    0

Here is another compound to look at.
In: Write down the call the test reported for this compound. Item: COc1ccc(CNc2c3ccccc3nc3ccccc23)cc1
Out: 0
